method notes: protein stability index of a GFP-peptide fusion (yeast GPS) (PSI 1-4); higher = more stable; sorted into four equal gates, so the index is relative within each strain
condition context: pdr5∆
measured endpoint: protein stability index

> print(dat)
                      sequence.input  numeric.readout
1           ASVEIVFHDPDHSMILP [SMC3]             2.54
2           QQTEHETEIKDLTQLLE [SMC4]             3.26
3          NLDAAAAGTSQARTATL [RPC10]             3.15
4          MSRPQVTVHSLTGEATA [RPL4A]             2.28
5           PKSASNTSSKRQKKKPT [IRR1]             2.61
6  SSKYAYMMNSQSPRGKI [YLR018C/POM34]             2.69
7           ETRRKTTTVLKRYANHT [RET1]             2.98

###

method notes: protein stability index of a GFP-peptide fusion (yeast GPS) (PSI 1-4); higher = more stable; sorted into four equal gates, so the index is relative within each strain
condition context: san1∆
measured endpoint: protein stability index

> print(dat)
               sequence.input  numeric.readout
 1   AYVAIEQVKDDGTSTEK [RPN8]             3.23
 2   LSAENIEERLVAIAEQD [SCL1]             3.33
 3   LPKLNLPKYQTIQYDPP [SNF5]             2.31
 4   NDNIGANRSRFNNEAPP [SMB1]             2.54
 5   EVAQYLQEIYQTDAIKS [RPN5]             2.47
 6   KPIYKDTRFGGRMDMTR [SSN2]             3.33
 7   MDKPLNFRILKSFTNDK [SRB5]             3.14
 8   TVSPDFVAATTNAGYTI [FAS1]             2.32
 9   QVMEEKLDENNAQLSCI [PUP2]             2.86
10   SNASQMGNTGSGGYDNA [RPB3]             3.52
11   FILLDRLRQFNLQPIST [SMC4]             1.49
12   NDRESVLTNIEVYRTSL [SMC3]             3.05
13   DKRIVISIDSWPTTHKY [DIS3]             1.99
14   SSFSLTFFPRCIIAVSC [POP1]             2.07
15  NNSNNNNIIRIQQLISQ [SNF11]             2.54

###

method notes: protein stability index of a GFP-peptide fusion (yeast GPS) (PSI 1-4); higher = more stable; sorted into four equal gates, so the index is relative within each strain
condition context: doa10∆
// reported protein stability index for each item listed
measured endpoint: protein stability index

> print(dat)
                      sequence.input        measured.endpoint  result
 1          HARARGPRAVLTRQPTE [RET1]  protein stability index    3.28
 2  NSPTSFFDGSASSTPIP [YOR098C/NUP1]  protein stability index    3.19
 3        MVLRKQKRYTVKKALAK [RPL14A]  protein stability index    2.08
 4         KREIQEALSEKPTREPT [RPC53]  protein stability index    2.96
 5  AAREKKIRELEAELSST [YIL149C/MLP2]  protein stability index    2.46
 6  DQKETKKGESEKDASGK [YOR098C/NUP1]  protein stability index    3.45
 7         LTVAMYINSDSVNPAML [RPO31]  protein stability index     2.4
 8         NAIIEANLGKYGILSID [RPL7A]  protein stability index    2.87
 9          LLESYKTLSLKSMASAF [RPN7]  protein stability index    1.67
10         DDDDYNAEKYFNNGDDD [RPC31]  protein stability index    3.01
11          SASLKKIQQHNTILNSS [BRR2]  protein stability index    2.65
12          ANNNMNDELVELLANKC [GRR1]  protein stability index    2.79
13          EFTPADPNLSFESSSSL [SSN2]  protein stability index    3.05
14         SLLSLVGHLSILPQQSK [ECM29]  protein stability index    2.21
